- Assay remarks: solvent given as SMILES
- Test context: in O
Reported emission maximum values for a set of compounds

Smiles notation | emission maximum (nm)
Cc1cc(=O)oc2c3c4c(cc12)CCCN4CCC3 | 489
Cc1cc(N(C)C)ccc1C1=C2C=CC(=[N+](C)C)C=C2[Si](C)(C)c2cc(N(C)C)ccc21 | 663
N#Cc1nc2cnc(N)nc2n1Cc1ccccc1 | 406
[NH-]c1cc(N)cc(-c2nc3ccccc3s2)c1 | 484

###

As shown below, each of these molecules has a reported emission maximum value.
- Assay remarks: solvent given as SMILES
- Test context: in CO

Smiles notation | Readout units | emission maximum
CCN(C)c1ccc(C2=C3C(C)=CC(/C=C/c4ccc(OCC(=O)OC)cc4)=[N+]3[B-](F)(F)n3c(C)cc(C)c32)cc1 | nm | 581
C/C(=N\Nc1ccc(C#N)cc1)c1ccccn1 | nm | 482
COC(=O)C[C@H](NC(=O)[C@H](Cc1c[nH]c2ccccc12)NC(=O)OC(C)(C)C)C(=O)OC | nm | 338
Cc1nn(-c2ccccc2)c(C2=NN(c3ccc(Br)cc3)[C@@H](c3ccccc3)[C@@H]2c2ccccc2)c1C#N | nm | 496
CCN(CC)c1ccc2ccc(=O)oc2c1 | nm | 445
Cc1ccc(C2=C3C=CC(/C=C/c4ccccc4)=[N+]3[B-](F)(F)n3c(/C=C/c4ccccc4)ccc32)cc1 | nm | 639
CCC1=C(C)C2=C(C)c3cccn3[B-](F)(F)[N+]2=C1C | nm | 512.5
COc1ccc(-c2ccc(-c3ccc(C#N)s3)s2)cc1 | nm | 476
C1=Nc2cccc3cccc(c23)N1 | nm | 485
COc1ccc2n1[B-](F)(F)[N+]1=CC=CC1=C2c1ccccc1 | nm | 512
CN(C)c1ccc(/C=C/C=C/c2nc3ccccc3s2)cc1 | nm | 573
O=C(O)COc1ccc2[nH]c3c(c2c1)CCCC3=O | nm | 491.73
Cc1ccc(C2=C3C=c4c(oc5ccccc45)=[N+]3[B-](F)(F)n3c2cc2c4ccccc4oc23)cc1 | nm | 594.5
